# test_target: T1, human CTLA-4 (human, UniProt P16410 36-223)
# T1 construct: whole, on cells; also called huCTLA4
# T1 sequence (P16410 36-223): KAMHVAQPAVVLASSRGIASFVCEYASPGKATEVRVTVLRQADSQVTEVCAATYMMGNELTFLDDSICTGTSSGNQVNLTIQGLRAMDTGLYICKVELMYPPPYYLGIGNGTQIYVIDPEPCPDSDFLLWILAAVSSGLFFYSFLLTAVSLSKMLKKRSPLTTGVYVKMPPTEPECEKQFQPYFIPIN
# experiment_description: flow cytometry, CHO cells stably expressing huCTLA4, 33.3 nM, PE anti-human Fc
Known MFI at 33.3 nM of a selection of binders
measurement_name: MFI at 33.3 nM

binder	measurement_name	endpoint_result
E24D/Q27R/E35D/T41S/M47V/L85Q CD80 IgV-Fc (Fc fusion, not shown: a dimerising Fc or GST) VIHVTKEVKEVATLSCGHNVSVEDLARTRIYWQKDKKMVLSMMSGDVNIWPEYKNRTIFDITNNLSIVILALRPSDEGTYECVVQKYEKDAFKREHLAEVTLSVKAD	MFI at 33.3 nM	13900 MFI
CD80 WT IgV-Fc (Fc fusion, not shown: a dimerising Fc or GST, also called WT CD80-IgV-Fc; wild-type CD80 IgV-Fc) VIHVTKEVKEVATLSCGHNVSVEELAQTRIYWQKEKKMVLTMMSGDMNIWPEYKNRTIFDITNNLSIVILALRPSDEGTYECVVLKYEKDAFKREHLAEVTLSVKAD	MFI at 33.3 nM	1030 MFI
